tested on: HeLa; assay: Inhibition of TNFalpha-induced NFkappaB activation assessed as TNFalpha-induced transcription level in human HeLa cells at 30 uM incubated for 6 hrs by luciferase reporter gene assay; type: cell-based; set-up: scale not given: the % may be the effect or the level left
Categories are assigned from the measured Activity using these intervals: lower band: < 70%; central band: ≥ 70% and < 90%; upper band: ≥ 90%

COc1cccc(/C=C/n2cc(/C=C/c3ccc(O)c(O)c3)nn2)c1 ... upper band

Which Activity category applies to COc1cc(/C=C/c2cn(/C=C/c3ccccc3)nn2)cc(OC)c1OC here?
lower band

Then this compound: COc1cc(/C=C/C(=O)CC(=O)/C=C/c2ccc(O)c(OC)c2)ccc1O
lower band

====

system: SH-SY5Y; assay: Antiproliferative activity against human SH-SY5Y cells assessed as cell viability after 48 hrs; type: functional, cell-based
Entries and their measured IC50 follow.
Report the figure in µM without appending any unit label.

// worked examples, IC50 included
COc1cc(/C=C/c2cn(/C=C/c3ccc(O)cc3)nn2)cc(OC)c1OC ... 1.7
COc1cc(/C=C/c2cn(/C=C/c3ccc(O)c(OC)c3)nn2)ccc1O ... 17.8
COc1cccc(/C=C/n2cc(/C=C/c3ccc(O)c(O)c3)nn2)c1 ... 17
COc1cc(/C=C/C(=O)CC(=O)/C=C/c2ccc(O)c(OC)c2)ccc1O [CURCUMIN] ... 16.1
COc1ccc(/C=C/c2cn(/C=C/c3ccc(O)c(OC)c3)nn2)cc1O ... 6.9
COc1cc(/C=C/n2cc(/C=C/c3cc(OC)c(OC)c(OC)c3)nn2)ccc1O ... 7.8
COc1ccc(/C=C/c2cn(/C=C/c3ccc(O)cc3)nn2)cc1 ... 11.3

# evaluate next
I am curious: what IC50 value has been reported for COc1cccc(/C=C/c2cn(/C=C/c3ccc(O)cc3)nn2)c1 ?
9

====

Listed here: items and their measured Activity.
system: HeLa; assay: Inhibition of TNFalpha-induced NFkappaB activation assessed as TNFalpha-induced transcription level in human HeLa cells at 30 uM incubated for 6 hrs by luciferase reporter gene assay; format: cell-based; design: scale not given: the % may be the effect or the level left
Give your result in % as a bare value.

Oc1ccc(/C=C/c2cn(/C=C/c3ccccc3)nn2)cc1O ... 167
COc1cc(/C=C/c2cn(/C=C/c3ccc(O)c(OC)c3)nn2)ccc1O ... 48
COc1ccc(/C=C/c2cn(/C=C/c3ccccc3)nn2)cc1 ... 74.5
COc1cc(/C=C/c2cn(/C=C/c3ccc(O)cc3)nn2)cc(OC)c1OC ... 14.6
COc1cccc(/C=C/c2cn(/C=C/c3ccc(O)cc3)nn2)c1 ... 61.5
COc1ccc(/C=C/c2cn(/C=C/c3ccc(O)cc3)nn2)cc1 ... 131

What value of Activity has been recorded for this entry: COc1cccc(/C=C/n2cc(/C=C/c3ccc(O)cc3)nn2)c1
94.3

====

Catalogue of compounds with associated pIC50
tested on: HeLa; assay: Antiproliferative activity against human HeLa cells assessed as cell viability after 48 hrs; assay type: functional, cell-based
Please express pIC50 as -log10 of the molar concentration.

COc1ccc(/C=C/c2cn(/C=C/c3ccc(O)cc3)nn2)cc1 ... 4.47
COc1cc(/C=C/n2cc(/C=C/c3cc(OC)c(OC)c(OC)c3)nn2)ccc1O ... 4.87
COc1ccc(/C=C/c2cn(/C=C/c3ccc(O)c(OC)c3)nn2)cc1O ... 4.93
COc1cccc(/C=C/n2cc(/C=C/c3ccc(O)c(O)c3)nn2)c1 ... 4.73
COc1cc(/C=C/c2cn(/C=C/c3ccc(O)cc3)nn2)cc(OC)c1OC ... 5.82
COc1cccc(/C=C/c2cn(/C=C/c3ccc(O)cc3)nn2)c1 ... 4.76
COc1cc(/C=C/c2cn(/C=C/c3ccc(O)c(OC)c3)nn2)ccc1O ... 4.44

Below: the item to evaluate.
Entry under review: COc1cc(/C=C/C(=O)CC(=O)/C=C/c2ccc(O)c(OC)c2)ccc1O . Reported pIC50?
4.66

====

system: HeLa; assay: Inhibition of TNFalpha-induced NFkappaB activation assessed as TNFalpha-induced transcription level in human HeLa cells at 30 uM incubated for 6 hrs by luciferase reporter gene assay; assay type: cell-based; design: scale not given: the % may be the effect or the level left
PROPERTY_NAME: Activity (%)
Only the number, expressed in %, is required.

Bench note: what Activity did COc1cccc(/C=C/c2cn(/C=C/c3ccc(O)c(OC)c3)nn2)c1 (mixture of isomers) show?
88.9

COc1cccc(/C=C/c2cn(/C=C/c3cccc(OC)c3)nn2)c1 , same question.
71

Do the same for COc1cccc(/C=C/n2cc(/C=C/c3ccccc3)nn2)c1 please
76.1

Field entry: COc1cc(/C=C/n2cc(/C=C/c3ccc(O)cc3)nn2)ccc1O
73.2

Then what about the compound COc1cc(/C=C/c2cn(/C=C/c3ccccc3)nn2)ccc1O ?
138

Can you handle Oc1ccc(/C=C/c2cn(/C=C/c3ccccc3)nn2)cc1 next?
85.4

Moving on to COc1ccc(/C=C/c2cn(/C=C/c3ccc(O)c(OC)c3)nn2)cc1
146

Now the compound Oc1ccc(/C=C/c2cn(/C=C/c3ccc(O)cc3)nn2)cc1
112

====

test system: HeLa; test: Inhibition of TNFalpha-induced NFkappaB activation assessed as TNFalpha-induced transcription level in human HeLa cells at 30 uM incubated for 6 hrs by luciferase reporter gene assay; type: cell-based; set-up: scale not given: the % may be the effect or the level left
Classification by Activity follows these ranges: bin A: < 60%; bin B: ≥ 60% and < 90%; bin C: ≥ 90%

Previously resolved entries follow.
COc1cccc(/C=C/c2cn(/C=C/c3ccccc3)nn2)c1 ... bin B
Oc1ccc(/C=C/n2cc(/C=C/c3ccc(O)c(O)c3)nn2)cc1 ... bin C
COc1cc(/C=C/c2cn(/C=C/c3ccc(O)cc3)nn2)ccc1O ... bin C

Which of the defined bands does the recorded Activity of C(=C\c1cn(/C=C/c2ccccc2)nn1)/c1ccccc1 sit within?
bin B

For COc1ccc(/C=C/c2cn(/C=C/c3ccc(O)c(OC)c3)nn2)cc1O then?
bin A

Queued: COc1cccc(/C=C/n2cc(/C=C/c3ccc(O)c(OC)c3)nn2)c1
bin A

Another molecule to look at: COc1cc(/C=C/n2cc(/C=C/c3ccccc3)nn2)ccc1O
bin C

// same read-out, input: COc1cc(/C=C/n2cc(/C=C/c3cc(OC)c(OC)c(OC)c3)nn2)ccc1O
bin A

Same for COc1cccc(/C=C/n2cc(/C=C/c3cc(OC)c(OC)c(OC)c3)nn2)c1
bin A

Same read-out for COc1ccc(/C=C/c2cn(/C=C/c3cccc(OC)c3)nn2)cc1 ?
bin B
